Test system: KP-4;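 also: human KP-4 cells, with growth inhibition read out through a cell viability assay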
Assay: cells
Format: functional, cell-based
Conditions: Homo sapiens
Description: SANGER: Inhibition of human KP-4 cell growth in a cell viability assay.
Documented IC50 across a set of molecules

Sample answers from the record:
> print(dat)
                                smiles.repr     result
1  Cn1c(=O)n(-c2ccc(C(C)(C)C#N)cc2)c2c3cc(-c4cnc5ccccc5c4)ccc3ncc21       7 nM
2  COc1cc(Nc2c(C#N)cnc3cc(OCCCN4CCN(C)CC4)c(OC)cc23)c(Cl)cc1Cl  > 2000 nM
3     C[C@]1(c2nc3c(C(N)=O)cccc3[nH]2)CCCN1  > 5000 nM

What value of IC50 has been recorded for this entry: `Fc1cc(-c2cc[nH]/c(=N/c3ccc(-n4cnc(N5CCOCC5)n4)cc3)n2)cc(N2CCOCC2)c1`
577 nM

Param item = `N#C/C(=C1/Nc2ccccc2S1)c1ccnc(NCCc2cccnc2)n1` ; retrieve measured IC50.
6430 nM

Item `C[C@]12O[C@H](C[C@]1(O)CO)n1c3ccccc3c3c4c(c5c6ccccc6n2c5c31)CNC4=O` has what recorded IC50?
568 nM

* * *

System: SK-LMS-1;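 also: growth inhibition of human SK-LMS-1 cells, read out with a cell viability assay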
Experiment: cells
Format: functional, cell-based
Conditions: Homo sapiens
Description: SANGER: Inhibition of human SK-LMS-1 cell growth in a cell viability assay.
MEASURED PARAMETER: IC50

Here is how some molecules turned out for IC50.
> print(dat)
                                   molecule  system.under.test      result
1  CCCS(=O)(=O)Nc1ccc(F)c(C(=O)c2c[nH]c3ncc(Cl)cc23)c1F           SK-LMS-1  > 10000 nM
2  C/C=C(/C)C(=O)O[C@H]1C(C)=C2[C@H]([C@@H]1OC(=O)CCCCCCC)[C@@](C)(OC(C)=O)C[C@H](OC(=O)CCC)[C@@]1(O)[C@H]2OC(=O)[C@@]1(C)O           SK-LMS-1      < 2 nM
3  CCn1c(-c2nonc2N)nc2cnc(Oc3cccc(NC(=O)c4ccc(OCCN5CCOCC5)cc4)c3)cc21 [GSK-269962A]           SK-LMS-1   > 2500 nM
4  CCNC(=O)c1noc(-c2cc(C(C)C)c(O)cc2O)c1-c1ccc(CN2CCOCC2)cc1           SK-LMS-1     4.58 nM
5  O=c1[nH]c2ccccc2n1C1CCN(Cc2ccc(-c3nc4cc5[nH]cnc5cc4nc3-c3ccccc3)cc2)CC1           SK-LMS-1   > 2560 nM
6  COc1cc(C)c(Sc2cnc(NC(=O)c3ccc(CNC(C)C(C)(C)C)cc3)s2)cc1C(=O)N1CCN(C(C)=O)CC1 (stereo not given)           SK-LMS-1  > 10200 nM
7     C[C@]1(c2nc3c(C(N)=O)cccc3[nH]2)CCCN1           SK-LMS-1   > 5000 nM
8  Fc1cc(-c2cc[nH]/c(=N/c3ccc(-n4cnc(N5CCOCC5)n4)cc3)n2)cc(N2CCOCC2)c1           SK-LMS-1      453 nM

If you can, please state the reported IC50 value of `COc1cc(Nc2c(C#N)cnc3cc(OCCCN4CCN(C)CC4)c(OC)cc23)c(Cl)cc1Cl` .
> 2000 nM

Consider the molecule shown here: `O=c1cc(N2CCOCC2)oc2c(-c3cccc4c3sc3ccccc34)cccc12` What is its recorded IC50?
> 2000 nM

* * *

Tested on: SK-MES-1
Experiment: cells
Assay type: functional, cell-based
Conditions: Homo sapiens
Description: SANGER: Inhibition of human SK-MES-1 cell growth in a cell viability assay.
MEASURED PARAMETER: IC50 (µM)
Kindly answer with a numeric value in µM, unit omitted.

Some solved cases for reference:
> print(dat)
                                smiles.repr  numeric.result
1  CC[C@@]1(O)C(=O)OCc2c1cc1n(c2=O)Cc2cc3ccccc3nc2-1          0.0108
2  Fc1cc(-c2cc[nH]/c(=N/c3ccc(-n4cnc(N5CCOCC5)n4)cc3)n2)cc(N2CCOCC2)c1           0.153
3  CO[C@@]12[C@H](COC(N)=O)C3=C(C(=O)C(C)=C(N)C3=O)N1C[C@@H]1N[C@@H]12          0.0511
4  Cn1c(=O)n(-c2ccc(C(C)(C)C#N)cc2)c2c3cc(-c4cnc5ccccc5c4)ccc3ncc21          0.0533

Now look at this entry.
Give the reported IC50 for `N#C/C(=C1/Nc2ccccc2S1)c1ccnc(NCCc2cccnc2)n1` (system: SK-MES-1).
3.44

* * *

System: SAS
Experiment: cells
Format: functional, cell-based
Details: Homo sapiens
Description: SANGER: Inhibition of human SAS cell growth in a cell viability assay.
MEASURED PARAMETER: pIC50
Note on units: pIC50 is unitless, being -log10 of a concentration expressed in mol/L.

> print(dat)
                                smiles.repr  numeric.result
1  C[C@]12O[C@H](C[C@]1(O)CO)n1c3ccccc3c3c4c(c5c6ccccc6n2c5c31)CNC4=O            6.02
2  CCNC(=O)c1noc(-c2cc(C(C)C)c(O)cc2O)c1-c1ccc(CN2CCOCC2)cc1            7.04
3  CC(=O)c1c(C)c2cnc(Nc3ccc(N4CCNCC4)cn3)nc2n(C2CCCC2)c1=O            5.66

Entry under review: `CC[C@@]1(O)C(=O)OCc2c1cc1n(c2=O)Cc2cc3ccccc3nc2-1` . Reported pIC50?
8.91

Could you share which pIC50 value was measured for `CO[C@@]12[C@H](COC(N)=O)C3=C(C(=O)C(C)=C(N)C3=O)N1C[C@@H]1N[C@@H]12` ?
6.21

* * *

Collected pIC50 values appear next to each entry.
Tested on: DJM-1;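 also: growth inhibition of human DJM-1 cells, read out by a cell viability assay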
Test: cells
Type: functional, cell-based
Settings: Homo sapiens
Description: SANGER: Inhibition of human DJM-1 cell growth in a cell viability assay.
pIC50: −log10 of the molar value.

Guide cases for pIC50, answers given:
COMPOUND	MEASURED PARAMETER	RESULT
CCNC(=O)c1noc(-c2cc(C(C)C)c(O)cc2O)c1-c1ccc(CN2CCOCC2)cc1	pIC50	7.37
C/C=C(/C)C(=O)O[C@H]1C(C)=C2[C@H]([C@@H]1OC(=O)CCCCCCC)[C@@](C)(OC(C)=O)C[C@H](OC(=O)CCC)[C@@]1(O)[C@H]2OC(=O)[C@@]1(C)O	pIC50	7.26
Cc1ccc(NC(=O)c2cccc(C(C)(C)C#N)c2)cc1Nc1ccc2ncn(C)c(=O)c2c1	pIC50	< 5.40

Please look up its pIC50: `NC(=O)c1ncn([C@@H]2O[C@H](COP(=O)(O)O)[C@@H](O)[C@H]2O)c1N`
< 2.70

Quick one: pIC50 for `CO[C@@]12[C@H](COC(N)=O)C3=C(C(=O)C(C)=C(N)C3=O)N1C[C@@H]1N[C@@H]12` ?
5.99

Quick one: pIC50 of CCn1c(-c2nonc2N)nc2cnc(Oc3cccc(NC(=O)c4ccc(OCCN5CCOCC5)cc4)c3)cc21 [GSK-269962A] ?
< 5.60

Give the measured pIC50 of `CC[C@]1(O)C[C@@H]2CN(CCc3c([nH]c4ccccc34)[C@@](C(=O)OC)(c3cc4c(cc3OC)N(C)[C@H]3[C@@](O)(C(=O)OC)[C@H](OC(C)=O)[C@]5(CC)C=CCN6CC[C@]43[C@@H]65)C2)C1` .
< 7.00

Can you look up the measured pIC50 of `Cc1[nH]c(/C=C2\C(=O)Nc3ccc(S(=O)(=O)Cc4c(Cl)cccc4Cl)cc32)c(C)c1C(=O)N1CCC[C@@H]1CN1CCCC1` for me?
< 5.70

Which measured pIC50 value corresponds to `CC(=O)c1c(C)c2cnc(Nc3ccc(N4CCNCC4)cn3)nc2n(C2CCCC2)c1=O` ?
< 5.40

* * *

Examples of compounds with documented IC50 follow.
Test system: MOLT-4;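 also: growth inhibition of MOLT-4 cells, determined with a cell viability readout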
Test: cells
Assay type: functional, cell-based
Conditions: Homo sapiens
Description: SANGER: Inhibition of human MOLT-4 cell growth in a cell viability assay.
Give the value, in units of nM, as a plain number.

> print(dat)
                                smiles.repr  readout.unit  numeric.result
1  NC(=O)c1ncn([C@@H]2O[C@H](COP(=O)(O)O)[C@@H](O)[C@H]2O)c1N            nM          485000

Tell me the measured IC50 of `Fc1cc(-c2cc[nH]/c(=N/c3ccc(-n4cnc(N5CCOCC5)n4)cc3)n2)cc(N2CCOCC2)c1` , please.
716

Report IC50 for `CC(=O)c1c(C)c2cnc(Nc3ccc(N4CCNCC4)cn3)nc2n(C2CCCC2)c1=O` please.
345

Item under review: `Cc1n[nH]c2ccc(-c3cncc(OC[C@@H](N)Cc4c[nH]c5ccccc45)c3)cc12` . Reported IC50?
131

* * *

Each item that follows carries a reported pIC50.
Tested on: HCC38;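 also: cell viability assay on the human HCC38 cell line, with IC50 marking the concentration that inhibits cell growth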
Assay: cells
Type: functional, cell-based
Conditions: Homo sapiens
Description: SANGER: Inhibition of human HCC38 cell growth in a cell viability assay.
pIC50: −log10 of the molar value.

> print(dat)
                                   molecule  measured.parameter  result
1  NC(=O)c1ncn([C@@H]2O[C@H](COP(=O)(O)O)[C@@H](O)[C@H]2O)c1N               pIC50  < 2.70
2  CC(O)(CS(=O)(=O)c1ccc(F)cc1)C(=O)Nc1ccc(C#N)c(C(F)(F)F)c1 (centres undefined) [BICALUTAMIDE]               pIC50  < 5.99
3  O=c1[nH]c2ccccc2n1C1CCN(Cc2ccc(-c3nc4cc5[nH]cnc5cc4nc3-c3ccccc3)cc2)CC1               pIC50  < 5.59

Suppose we examine the molecule C[C@]1(c2nc3c(C(N)=O)cccc3[nH]2)CCCN1 [VELIPARIB] ; what pIC50 value has been reported?
< 5.30

// provenance: ChEMBL document CHEMBL1201861
